Measured values drawn from PubChem BioAssay (NCI) for this set.

test system: UO-31 renal; test: NCI tumour cell line growth inhibition, 48 h
Measurement name: TGI

Study these solved cases before continuing.
Inquiry: What reported TGI corresponds to O=Cc1ccc2c(c1I)OCO2 on UO-31 renal?
Reply text: > 100 µM

Inquiry: Please answer likewise for COc1cccc(/N=N/C(=NNC(=O)c2ccc(C)cc2)c2ccc(N(C)C)cc2)c1
Reply text: > 100 µM

Continue with the molecule presented below.
Inquiry: What reported TGI corresponds to N#CNc1nc(N)c(-c2ccc(Cl)cc2)c(C(=O)Nc2nccs2)n1 on UO-31 renal?
Reply text: > 100 µM

###

system: RPMI-8226 leukemia; test: NCI tumour cell line growth inhibition, 48 h
Measurement name: TGI

Study these solved cases before continuing.
Inquiry: What reported TGI corresponds to CSc1c(C#N)c(N)n(-c2ccc(Cl)cc2)c(=O)c1C#N on RPMI-8226 leukemia?
Reply text: > 100 µM

Inquiry: Please answer likewise for Clc1ccc(C2ON=C(c3ccccc3)N2C23CC4CC(CC(C4)C2)C3)cc1 (stereo not drawn)
Reply text: > 10 µM

Inquiry: Please answer likewise for NNc1nnc(-c2nnc(NN)o2)o1
Reply text: > 10 µM

Inquiry: Please answer likewise for Cc1cc2c(c(C(N)=O)c1C)-c1cc(Cl)cc(Cl)c1C2=O
Reply text: > 100 µM

Inquiry: Please answer likewise for Oc1cccc2c1NCCC2
Reply text: > 100 µM

Next:
Inquiry: What reported TGI corresponds to CCOC(=O)Cn1nnc2ccc(Nc3nc4ccccc4nc3-c3ccccc3)cc21 on RPMI-8226 leukemia?
Reply text: > 100 µM

Inquiry: Please answer likewise for CCCCNc1nc(NC2OCC(OC(C)=O)C(OC(C)=O)C2OC(C)=O)c(N=O)c(=O)n1C (stereo not drawn)
Reply text: > 10 µM

Inquiry: Please answer likewise for NC1=NC(=O)C(CC(=O)Nc2ccc(Cl)cc2Cl)S1 (stereo not drawn)
Reply text: > 100 µM

Inquiry: Please answer likewise for O=C(O)c1ccccc1N=Nc1c(O)c(S(=O)(=O)O)cc2cc(S(=O)(=O)O)ccc12
Reply text: > 100 µM

Inquiry: Please answer likewise for COc1ccc2c(-c3ccnc(Nc4cccc(OC(F)(F)F)c4)n3)cnn2n1
Reply text: > 21 µM
